Hi there, I'd appreciate the recorded mortality at 100 ppm for every entry that follows.
System: Tobacco Budworm [Heliothis virescens (Fabricius)]
method notes: Insecticide test, tobacco budworm 1st instar (eggs / newly hatched larvae on dipped cotton leaf)
Type: in vivo
experimental context: 72 h, read-out: % kill, Tobacco Budworm 1st Instar

stdin: mortality at 100 ppm for `CCCCCCCCC=CCCCCCCCC(=O)N1CC(C)(C)CN=C1NN=C(C=Cc1ccc(C(F)(F)F)cc1)C=Cc1ccc(C(F)(F)F)cc1` ?
stdout: 100%

stdin: mortality at 100 ppm for `CC(=O)N1CC(C)(C)CN=C1NN=C(C=Cc1ccc(Cl)cc1)C=Cc1ccc(Cl)cc1` ?
stdout: 100%

stdin: mortality at 100 ppm for `CC1(C)CN=C(NN=C(C=Cc2ccc(C(F)(F)F)cc2)C=Cc2ccc(C(F)(F)F)cc2)N(C(=O)c2ccc(C(C)(C)C)cc2)C1` ?
stdout: 0 to 40%

stdin: mortality at 100 ppm for `CCCCCCCCCCCCCCCC(=O)N1CC(C)(C)CN=C1NN=C(C=Cc1ccc(C(F)(F)F)cc1)C=Cc1ccc(C(F)(F)F)cc1` ?
stdout: 0 to 40%

stdin: mortality at 100 ppm for `CC(=O)N1CCCCN=C1NN=C(C=Cc1ccc(C(F)(F)F)cc1)C=Cc1ccc(C(F)(F)F)cc1` ?
stdout: 41 to 60%

stdin: mortality at 100 ppm for `CC1(C)CN=C(NN=C(C=Cc2ccc(Cl)cc2)C=Cc2ccc(Cl)cc2)N(C(=O)c2ccccc2)C1` ?
stdout: 41 to 60%

stdin: mortality at 100 ppm for `CC(=O)N1CC(C)(C)CN=C1NN=C(C=Cc1ccc(C(F)(F)F)cc1)C=Cc1ccc(C(F)(F)F)cc1` ?
stdout: 0 to 40%

stdin: mortality at 100 ppm for CC1(C)CN=C(NN=C(C=Cc2ccc(C(F)(F)F)cc2)C=Cc2ccc(C(F)(F)F)cc2)N(C(=O)c2ccccc2)C1 [drawing 35] ?
stdout: 0 to 40%
